Reference source for all entries: patent US8178547B2

Answer each item with its documented melting point.

• Cc1cc(-c2ccn[nH]c2=O)cc(C(C)(C)C)c1 [Compound I-12] = 175 to 176 °C
• COc1c(/C=C/c2ccc(NS(C)(=O)=O)cc2)cc(-c2cnc(Cl)[nH]c2=O)cc1C(C)(C)C [Compound I-32] = > 300 °C
• CC1(C)COc2c(-c3ccn[nH]c3=O)cc(/C=C/c3ccc(NS(C)(=O)=O)cc3)cc21 [Compound I-21] = 255 to 257 °C
• CC(C)(C)c1cc(/C=C/c2ccc(NS(C)(=O)=O)cc2)cc(-c2ncc[nH]c2=O)c1 [Compound I-10] = 283 to 285 °C

Hey, can you go through the list below and give me melting point for every item?
1. CC(C)(C)c1cc(/C=C/c2ccc(NS(C)(=O)=O)cc2)c(O)c(-c2ncc[nH]c2=O)c1 [Compound I-6]
2. COc1c(NC(=O)c2ccc(N)cc2)cc(-c2ccn[nH]c2=O)cc1C(C)(C)C [Compound I-19]
3. COc1c(/C=C/c2ccccc2)cc(-c2ccn[nH]c2=O)cc1C(C)(C)C [Compound I-14]
4. COc1c(/C=C/c2ccc(NS(C)(=O)=O)cc2)cc(-c2c[nH]c(=O)[nH]c2=O)cc1OC(F)(F)F [Compound I-42]
5. COc1c(/C=C/c2ccc(NS(C)(=O)=O)cc2)cc(-c2c[nH]c(=O)[nH]c2=O)c2c1C(C)(C)CO2 [Compound I-28]
6. COc1c(/C=C/c2ccc(NS(C)(=O)=O)cc2)cc(-c2cnc(N(C)C)[nH]c2=O)cc1C(C)(C)C [Compound I-33]
7. COc1c(NC(=O)c2ccc(NCC(F)(F)F)cc2)cc(-c2ccn[nH]c2=O)cc1C(C)(C)C [Compound I-20]
8. COc1ncc(-c2cc(/C=C/c3ccc(NS(C)(=O)=O)cc3)c(OC)c(C(C)(C)C)c2)c(=O)[nH]1 [Compound I-34]

["280 to 282 °C", "174 to 176 °C", "100 to 102 °C", "202 to 205 °C", "> 300 °C", "> 300 °C", "250 to 252 °C", "296 to 299 °C"]

Hey, can you go through the list below and give me melting point for every item?
1. COc1c(/C=C/c2ccc(NS(C)(=O)=O)cc2)cc(-c2ncc[nH]c2=O)cc1C1(C(F)F)CC1 [Compound I-31]
2. COc1c(CCc2ccc(NS(C)(=O)=O)cc2)cc(-c2ncc[nH]c2=O)cc1C(C)(C)C [Compound I-1]

241 to 243 °C
238 to 240 °C
